- assay-explanation: inhibitors of Clostridioides difficile proliferation – 4-point retest, confirmation (AID 1224921);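 note: plate controls were DMSO wells for no effect and levofloxacin 16 µg/mL wells for full effect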
- experimental-parameters: Clostridioides difficile clinical isolate growth, OD600, 24 h, hits give low values; at 30 µM unless noted
Screen size: about 1,400 compounds; about 350 (25%) were called active. Not shown: some 2% with an inconclusive outcome. A selection follows. Entries with a potency or affinity are not part of this list.
Collected max activity values appear next to each entry.

get_value(item= "C[C@H]1CN([C@@H](C)CO)S(=O)(=O)c2ccc(Br)cc2O[C@@H]1CN(C)Cc1cccc(F)c1" , readout=max activity) returns 41.5% (inactive)

get_value(item= "COc1ccc(CN(C)C[C@H]2OCCCC[C@@H](C)Oc3ccc(NC(=O)Nc4ccc(F)cc4)cc3C(=O)N([C@@H](C)CO)C[C@@H]2C)cc1" , readout=max activity) returns 19.8% [at 8 µM] (inactive)
